Test system: A549 lung epithelial cells
Experiment: A549 cell cytotoxicity (MTT)
Details: 48 h incubation, MTT; called CC50 in methods
OBSERVABLE: Cytotoxicity IC50 A549 cells (µg/mL)
One number for each entry, in µg/mL.

Answered cases to consult:
Input: Requested read-out: Cytotoxicity IC50 A549 cells. Entry: O.O.O.O.O.O.O.O.O.O.O.O.O.O.O.O.O=C([O-])c1cccc(C(=O)[O-])c1.O=C([O-])c1cccc(C(=O)[O-])c1.[Mn+2].[Mn+2].c1cnc2c(c1)ccc1cccnc12.c1cnc2c(c1)ccc1cccnc12.c1cnc2c(c1)ccc1cccnc12.c1cnc2c(c1)ccc1cccnc12.c1cnc2c(c1)ccc1cccnc12 [compound 8, {[Mn(phen)2(H2O)2]}2(isoph)2(phen)·12H2O]
Output: 251.76

Input: Likewise for O.O.O.O.O.O=C([O-])c1ccc(C(=O)[O-])cc1.[Mn+2].c1cnc2c(c1)ccc1cccnc12.c1cnc2c(c1)ccc1cccnc12 [compound 9, [Mn(tereph)(phen)2]·5H2O] ?
Output: 251.94

Each molecule below has a recorded value; state its Cytotoxicity IC50 A549 cells.
1. O.O.O.O.O=C([O-])c1cccc(C(=O)[O-])c1.O=C([O-])c1cccc(C(=O)[O-])c1.[Mn+2].[Mn+2].c1cnc2c(c1)ccc1cccnc12.c1cnc2c(c1)ccc1cccnc12.c1cnc2c(c1)ccc1cccnc12 [compound 7, [Mn2(isoph)2(phen)3]·4H2O]
2. O.O.O.O.O.O=C([O-])c1ccccc1C(=O)[O-].[Mn+2].c1cnc2c(c1)ccc1cccnc12.c1cnc2c(c1)ccc1cccnc12 [compound 6, [Mn(ph)(phen)2(H2O)]·4H2O]
3. O.O.O=C([O-])c1ccccc1C(=O)[O-].[Mn+2].c1cnc2c(c1)ccc1cccnc12 [compound 5, [Mn(ph)(phen)(H2O)2]]
4. O.O.[Cl-].[Cl-].[Mn+2] [MnCl2·2H2O, reference compound]

Output:
1. 255.87
2. 259.34
3. 234.51
4. 153.4
